Hi there, I'd appreciate the recorded logD for every entry that follows.
- Experiment notes: Lipophilicity, logD of compound at pH 7.4 by shake flask method
- Assay type: physicochemical
- Setup conditions: buffer

Field logD (entry CC(=O)Nc1cccc(-c2ccnc(NC(=O)C3CCOC3)c2)c1 (racemic) ) reads 2

Field logD (entry CNC(=O)c1cc(NC2CCOCC2)cc(-c2ccnc(NC(=O)C3CCOCC3)c2)c1 ) reads 1.9

Field logD (entry CNC(=O)c1cc(Nc2ccccc2)cc(-c2ccnc(NC(C)=O)c2)c1 ) reads 3.4

Field logD (entry CN(C)CCNC(=O)c1cc(Nc2ccccc2)cc(-c2ccnc(NC(=O)C3CC3)c2)c1 ) reads 3.5

Field logD (entry CNS(=O)(=O)c1cccc(-c2ccnc(NC(=O)C3CCOC3)c2)c1 (racemic) ) reads 1.7

Field logD (entry CNC(=O)c1cc(Nc2ccccc2)cc(-c2ccnc(NC(=O)C3CCOCC3)c2)c1 ) reads 3.9

Field logD (entry CN(CC1OCCO1)C(=O)c1cc(Nc2ccccc2)cc(-c2ccnc(NC(=O)C3CC3)c2)c1 ) reads 3.9

Field logD (entry CNC(=O)c1cccc(-c2ccnc(NC(=O)C3CCOC3)c2)c1 (racemic) ) reads 1.9

Field logD (entry CNC(=O)c1cc(Nc2ccc(F)cc2)cc(-c2cc(NC(=O)C3CCOCC3)ncn2)c1 ) reads 3.8

Field logD (entry CC(=O)N(C)c1cc(Nc2ccccc2)cc(-c2ccnc(NC(=O)C3CCOCC3)c2)c1 ) reads 3.6

Field logD (entry CNC(=O)c1cc(Nc2ccccc2F)cc(-c2ccnc(NC(=O)C3CCOCC3)c2)c1 ) reads 3.6

Field logD (entry CNC(=O)c1cc(Nc2ccc(OC)cc2)cc(-c2ccnc(NC(=O)C3CCOCC3)c2)c1 ) reads 3.5

Field logD (entry CNC(=O)c1cc(Nc2ccccc2)cc(-c2ccnc(NC(=O)C3CCN(C)CC3)c2)c1 ) reads 2.6

Field logD (entry O=C(NCC1OCCO1)c1cc(Nc2ccccc2)cc(-c2ccnc(NC(=O)C3CC3)c2)c1 ) reads 3.9

Field logD (entry O=C(Nc1cc(-c2ccccc2)ccn1)C1CCOC1 (racemic) ) reads 2.8

Field logD (entry CN1CCN(Cc2cc(Nc3ccccc3)cc(-c3ccnc(NC(=O)C4CCOCC4)c3)c2)CC1 ) reads 3.1

Field logD (entry CN(C)CCOc1cc(Nc2ccccc2)cc(-c2ccnc(NC(=O)C3CCOCC3)c2)c1 ) reads 3.2

Field logD (entry CNC(=O)c1cc(Nc2cccc(F)c2)cc(-c2ccnc(NC(=O)C3CCOCC3)c2)c1 ) reads 3.9

Field logD (entry CN(C)CCCNC(=O)c1cc(Nc2ccccc2)cc(-c2ccnc(NC(=O)C3CC3)c2)c1 ) reads 3

Field logD (entry CNC(=O)c1cc(Nc2ccccc2)cc(-c2ccnc(NC(=O)C3CC3)c2)c1 ) reads > 4.3

----------
- Experiment notes: Intrinsic clearance in rat hepatocytes assessed per 10^6 cells
- Type: ADME, cell-based, Hepatocyte
- Setup conditions: read-out: CLH
Result type: hepatocyte CLint (µL/min/1e6 cells)
Lab book: enter the figure in µL/min/1e6 cells, no units written.

Field hepatocyte CLint (entry CC(=O)Nc1cc(Nc2ccccc2)cc(-c2ccnc(NC(=O)C3CCOCC3)c2)c1 ) reads 46

Field hepatocyte CLint (entry CNC(=O)c1cc(Nc2ccccc2)cc(-c2ccnc(NC(=O)C3CCOCC3)c2)c1 ) reads 47

Field hepatocyte CLint (entry CN(CC1OCCO1)C(=O)c1cc(Nc2ccccc2)cc(-c2ccnc(NC(=O)C3CC3)c2)c1 ) reads 260

Where do these numbers come from? They come from ChEMBL document CHEMBL5143552.
